Target: GO (Homo sapiens, UniProt Q9UJM8)
Sequence (Q9UJM8 1-370): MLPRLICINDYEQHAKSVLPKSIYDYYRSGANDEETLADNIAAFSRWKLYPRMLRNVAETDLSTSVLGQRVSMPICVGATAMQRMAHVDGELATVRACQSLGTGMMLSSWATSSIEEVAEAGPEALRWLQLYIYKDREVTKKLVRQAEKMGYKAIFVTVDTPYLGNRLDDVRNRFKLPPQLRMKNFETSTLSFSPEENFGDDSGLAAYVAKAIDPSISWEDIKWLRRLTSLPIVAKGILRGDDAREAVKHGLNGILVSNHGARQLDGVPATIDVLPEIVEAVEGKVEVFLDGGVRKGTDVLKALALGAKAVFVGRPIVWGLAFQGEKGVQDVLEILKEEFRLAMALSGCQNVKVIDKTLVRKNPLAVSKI
Assay: GO Enzymatic Assay (Assay 1)
Assay type: biochemical
Set-up: purchased Novus Biologicals NBP1-72412
Conditions: Table 4; class symbols without asterisk, GO Enzymatic Assay (Assay 1); read-out: Range
pIC50: −log10 of the molar value.
measured_property: pIC50

compound | observed_result
O=C(O)c1[nH]nnc1CSC1CCN(c2ccc(Cl)c(Cl)c2)CC1 [Compound 384, 2,2,2-trifluoroacetate] | > 7.00

Ask | Would you kindly share the measured pIC50 for O=C(O)c1[nH]nnc1CS[C@H]1CC[C@@H](c2cc(Cl)cc(Cl)c2)CC1 [Compound 377] ?
Reply | > 7.00

Ask | Would you kindly share the measured pIC50 for O=C(O)c1[nH]nnc1O[C@H]1CC[C@H](c2ccc(C(=O)N3CCOCC3)cc2)CC1 [Compound 416, 2,2,2-trifluoroacetate] ?
Reply | > 7.00

Ask | Would you kindly share the measured pIC50 for O=C(O)c1[nH]nnc1COC1CCN(c2cc(Cl)ccc2Cl)CC1 [Example 481] ?
Reply | 6.00 to 7.00

Ask | Would you kindly share the measured pIC50 for O=C(O)c1[nH]nnc1O[C@H]1CC[C@H](c2ccc(N3CCCC3=O)cc2)CC1 [Compound 412] ?
Reply | > 7.00

Sourced from patent US20230088214A1
